Please provide measured pKi for the entries that follow.
Biological target: 5-HT2A (Homo sapiens (Human), UniProt P28223)
Sequence (P28223 whole entry): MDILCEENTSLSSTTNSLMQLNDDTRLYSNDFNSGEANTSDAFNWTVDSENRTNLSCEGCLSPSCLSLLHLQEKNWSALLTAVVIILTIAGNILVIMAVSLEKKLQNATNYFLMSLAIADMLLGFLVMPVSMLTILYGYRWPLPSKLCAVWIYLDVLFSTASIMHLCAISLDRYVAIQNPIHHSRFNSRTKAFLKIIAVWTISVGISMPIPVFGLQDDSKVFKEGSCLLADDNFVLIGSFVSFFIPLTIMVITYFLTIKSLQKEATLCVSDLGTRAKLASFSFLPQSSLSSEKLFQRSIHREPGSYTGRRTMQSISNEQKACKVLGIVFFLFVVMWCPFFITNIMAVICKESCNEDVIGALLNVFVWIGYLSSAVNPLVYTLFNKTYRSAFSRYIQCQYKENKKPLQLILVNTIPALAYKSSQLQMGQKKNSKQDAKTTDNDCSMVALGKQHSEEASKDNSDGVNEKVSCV
Assay: Radioligand binding assay, [^3H]5-HT competition, 5-HT2A
Conditions: [^3H]5-HT radioligand, membranes of HEK293 cells expressing recombinant 5-HT2A; Ki from IC50 by Cheng-Prusoff; read-out: 5-HT2A serotonin binding Ki value
Scale explanation: pKi corresponds to minus log10 of a concentration expressed in moles per litre.

Prompt: Supply measured pKi of Cc1ncnc(C)c1-c1cc(NC(=O)C2(CF)CC2)ccc1OCCN1CCC1 in your reply.
Completion: 7.87

Prompt: Supply measured pKi of Cc1ncnc(C)c1-c1cc(NC(=O)C2(F)CC2)ccc1O[C@@H]1CCCNC1 in your reply.
Completion: 7.82

Prompt: Supply measured pKi of Cc1cc(CC(=O)Nc2ccc(OCCN3CCCC3)c(-c3c(C)ncnc3C)c2)on1 in your reply.
Completion: 8.04

Prompt: Supply measured pKi of Cc1ncnc(C)c1-c1cc(NC(=O)CCc2cocn2)ccc1OCCN1CCCC1 in your reply.
Completion: 7.97

Reference for the values: patent US20250270172A1
